Data provenance: paper PMC10447463

- Type: physicochemical
- Parameters: key: 1 = fibrils present; 0 non-fibrillar structures
- MEASUREMENT_CONTEXT: TEM, 1 mg/mL, uranyl acetate stain, qualitative
PROPERTY_LABEL: Fibril / Fibril Formation

>>> reading("KIKIKIKI")
0
>>> reading("VLYVGSKT [reference compound]")
0
>>> reading("RIRFHIW")
0
>>> reading("NSGAITIG-NH2 [reference compound]")
0
>>> reading("RFWFWFW")
0
>>> reading("MKIKIQINM")
1
>>> reading("EFEFQF")
0
>>> reading("GYVIIK [reference compound]")
0
>>> reading("KIKIQINMW")
1
>>> reading("EIEIEIEI")
1
>>> reading("KIKIQIAMWQ")
1
>>> reading("KAKQAANMWQ")
0
>>> reading("KAKLTCT")
0
>>> reading("QCKAKAQANM")
0
>>> reading("KFKFQFF")
1
>>> reading("KIKIQIMQWN")
1
>>> reading("KIKIQINMAQ")
1
>>> reading("VQIVYK [reference compound]")
0
>>> reading("KIKIQINMWWQ")
0
>>> reading("HGDKCHGDKC")
0
>>> reading("RGDCKIKIQINM")
1
>>> reading("CKFKFQFW")
1
>>> reading("HRRHFRHKITKKK")
0
>>> reading("RGDCKFKFQF")
1
>>> reading("KLKLKLQL")
1
>>> reading("RGDKIKIQINMC")
1
>>> reading("RPRGLLLGNLR")
0
>>> reading("CRFRVPF")
0
>>> reading("ISKLEYSNFSVRY [reference compound]")
1
>>> reading("HHHHKAKAKAKAWWWW")
0
>>> reading("KIKIQIW")
1
>>> reading("KNDKND")
0
>>> reading("CKFKQFFNM")
1
>>> reading("QCKAKAQANMWQ")
0
>>> reading("EIKIQINM")
1
>>> reading("CHLHLQL")
0
>>> reading("ILKNLSRSRKIKIQINMWQ")
1
>>> reading("KIKIQINMWA")
1
>>> reading("RGDKIKIQI")
1
>>> reading("KIKIQIRGD")
1
>>> reading("QCKFKFQFNMWQ")
1
